system: recombinant human HDAC6 (Homo sapiens (Human))
Sequence (Q9UBN7 whole entry): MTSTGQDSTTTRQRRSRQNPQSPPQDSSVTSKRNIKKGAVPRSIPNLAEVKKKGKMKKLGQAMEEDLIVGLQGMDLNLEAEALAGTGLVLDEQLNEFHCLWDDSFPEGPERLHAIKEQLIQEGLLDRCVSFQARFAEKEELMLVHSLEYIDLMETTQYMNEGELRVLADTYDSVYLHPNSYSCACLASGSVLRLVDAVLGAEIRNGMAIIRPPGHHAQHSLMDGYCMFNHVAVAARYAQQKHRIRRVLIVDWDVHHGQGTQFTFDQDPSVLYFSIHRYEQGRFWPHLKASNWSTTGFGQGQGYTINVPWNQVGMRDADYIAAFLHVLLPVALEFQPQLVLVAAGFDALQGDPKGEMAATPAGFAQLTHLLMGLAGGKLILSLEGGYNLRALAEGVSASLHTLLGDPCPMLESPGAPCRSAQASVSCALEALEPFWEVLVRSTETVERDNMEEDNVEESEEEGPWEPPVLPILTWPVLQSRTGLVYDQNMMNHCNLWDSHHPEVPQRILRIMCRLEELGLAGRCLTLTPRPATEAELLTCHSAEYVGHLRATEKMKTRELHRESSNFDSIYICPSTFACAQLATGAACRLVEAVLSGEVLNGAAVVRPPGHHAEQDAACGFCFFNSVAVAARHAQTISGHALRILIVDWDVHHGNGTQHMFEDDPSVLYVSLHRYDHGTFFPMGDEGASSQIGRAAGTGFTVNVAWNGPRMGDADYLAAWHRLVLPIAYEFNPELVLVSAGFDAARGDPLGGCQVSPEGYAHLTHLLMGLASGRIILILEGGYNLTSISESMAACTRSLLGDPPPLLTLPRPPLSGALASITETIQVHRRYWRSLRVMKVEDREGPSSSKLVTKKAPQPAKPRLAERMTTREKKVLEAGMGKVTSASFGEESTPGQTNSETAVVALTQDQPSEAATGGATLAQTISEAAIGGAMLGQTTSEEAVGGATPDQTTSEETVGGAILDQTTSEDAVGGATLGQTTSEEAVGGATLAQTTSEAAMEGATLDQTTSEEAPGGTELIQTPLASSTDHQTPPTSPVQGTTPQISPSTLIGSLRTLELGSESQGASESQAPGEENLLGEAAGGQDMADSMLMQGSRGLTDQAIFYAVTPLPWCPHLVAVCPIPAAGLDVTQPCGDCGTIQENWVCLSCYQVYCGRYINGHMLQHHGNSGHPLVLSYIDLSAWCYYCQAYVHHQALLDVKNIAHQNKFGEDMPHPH
assay_comment: Enzymatic screening, HDAC6 inhibition (fluorogenic FdL_G substrate)
Protocol: For each test compound, 100× concentrated DMSO solutions at 8 doses were prepared and then diluted in assay buffer (25 mM Tris-HCl, pH 8, 130 mM NaCl, 0.05% Tween-20, 10% Glycerol) to obtain 5× concentrated solutions in relation to the final concentrations (typical final concentration range—6.4-200000 nM or 0.18-50000 nM, final DMSO content—1%). […]
endpoint_name: IC50 (nM)

Example entries begin here.
> print(dat)
                                        mol  endpoint.name  quantity.unit  reported
1  FC(F)c1nnc(-c2ccc(Cn3nnc(-c4cccc(-n5cccn5)c4)n3)cc2)o1           IC50             nM        99
2  CN1CC(C(=O)Nc2cccc(-c3cn(Cc4ccc(-c5nnc(C(F)F)o5)cc4)nn3)c2)C1           IC50             nM        64
3  FC(F)c1nnc(-c2ccc(Cn3nnc(-c4cccc(-c5nc6c([nH]5)CCNC6)c4)n3)cc2)o1           IC50             nM        45
4  Cn1c(N)nc2cc(-c3cnn(Cc4ccc(-c5nnc(C(F)F)o5)cc4)c3)ccc21           IC50             nM        98
5  FC(F)c1nnc(-c2ccc(Cn3nnc(-c4ccc(N5CCNCC5)nc4)n3)cc2)o1           IC50             nM        63
6  Nc1nc2ccc(-c3cn(Cc4ccc(-c5nnc(C(F)F)o5)cc4Cl)nn3)cc2s1           IC50             nM        41

1 = Nc1ncnc2cc(-c3cn(Cc4ccc(-c5nnc(C(F)F)o5)cn4)nn3)ccc12
2 = Cn1c(N)nc2cc(-c3nnn(Cc4cc(F)c(-c5nnc(C(F)F)o5)cc4F)n3)ccc21
[Q] Higher IC50 between 1 and 2 ? Response format: the label of the selected entry.
[A] 1
(1: 34 nM, 2: 19 nM)

I = COc1ncc(NCc2ccc(-c3cn(Cc4ccc(-c5nnc(C(F)F)o5)cc4)nn3)cc2)cc1C(N)=O
II = Fc1cc(-c2nnc(C(F)F)o2)cc(F)c1Cn1cc(-c2cnc3cccnn23)nn1
[Q] Hi! Which is lower in terms of IC50, the first one I or the second one II ? Response format: the label of the selected entry.
[A] II

###

system: recombinant human HDAC1 (Homo sapiens (Human))
Sequence (Q13547 whole entry): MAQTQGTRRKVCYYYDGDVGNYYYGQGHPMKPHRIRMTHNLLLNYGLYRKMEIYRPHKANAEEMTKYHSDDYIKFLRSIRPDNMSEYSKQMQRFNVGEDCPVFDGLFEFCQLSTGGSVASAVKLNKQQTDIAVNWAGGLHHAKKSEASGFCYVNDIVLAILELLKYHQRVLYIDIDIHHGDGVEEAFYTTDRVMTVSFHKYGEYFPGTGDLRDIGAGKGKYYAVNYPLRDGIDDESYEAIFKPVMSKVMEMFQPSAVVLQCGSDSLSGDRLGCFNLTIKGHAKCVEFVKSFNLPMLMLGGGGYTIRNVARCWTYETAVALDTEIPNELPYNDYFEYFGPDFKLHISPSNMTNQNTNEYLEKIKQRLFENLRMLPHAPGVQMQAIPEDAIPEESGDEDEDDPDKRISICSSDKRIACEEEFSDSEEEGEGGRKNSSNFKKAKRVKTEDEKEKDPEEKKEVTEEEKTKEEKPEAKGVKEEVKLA
assay_comment: Enzymatic screening, HDAC1 inhibition (fluorogenic FdL_G substrate)
Listed molecules paired with reported IC50

Example entries begin here.
> print(dat)
                                   molecule  endpoint.name   reported
1  O=C(Nc1cccc(-c2nc(Cc3ccc(-c4nnc(C(F)F)o4)cc3)no2)c1)N1CCOCC1 [compound 228]           IC50   > 200 µM
2  Nc1ccc(-c2cn([C@H](CN3CCCC3)c3ccc(-c4nnc(C(F)F)o4)cc3)nn2)cn1 [compound 313]           IC50  > 1000 µM
3  Nc1ccc(-c2cnn(Cc3ccc(-c4nnc(C(F)F)o4)cc3)c2)cn1 [compound 211]           IC50   > 200 µM
4  Nc1ccc(-c2cnn(Cc3ccc(-c4nnc(C(F)F)o4)cn3)c2)cn1 [compound 13]           IC50   > 200 µM
5  [2H]C([2H])(c1ccc(-c2nnc(C(F)F)o2)cn1)n1cc(-c2cccc(NC(=O)N3CCOCC3)c2)nn1 [compound 369]           IC50  > 1000 µM
6  O=C1Nc2cc(-c3nnn(Cc4ccc(-c5nnc(C(F)F)o5)cc4)n3)ccc2NC12CCCC2 [compound 195]           IC50   > 200 µM

[Q] In one line, give reported IC50 of the entry Nc1cc(-c2nnn(Cc3ccc(-c4nnc(C(F)F)o4)cc3)n2)ccc1O [compound 35] .
[A] > 200 µM

[Q] In one line, give reported IC50 of the entry CCNc1ncc2cc(-c3cn(Cc4cc(F)c(-c5nnc(C(F)F)o5)cc4F)nn3)ccc2n1 [compound 394] .
[A] 1000 µM

[Q] In one line, give reported IC50 of the entry FC(F)c1nnc(-c2ccc(Cn3nnc(C4(c5ccccc5)CC4)n3)cc2)o1 [compound 256] .
[A] > 200 µM

[Q] In one line, give reported IC50 of the entry Cn1c(N)nc2cc(-c3cn(Cc4ncc(-c5nnc(C(F)F)o5)cc4F)nn3)ccc21 [compound 349] .
[A] 178 µM

[Q] In one line, give reported IC50 of the entry O=C(Nc1cccc(-c2cn(Cc3c(F)cc(-c4nnc(C(F)F)o4)cc3F)nn2)c1)N1CCOCC1 [compound 78] .
[A] > 200 µM

[Q] In one line, give reported IC50 of the entry FC(F)c1nnc(-c2ccc(Cn3nnc(-c4ccco4)n3)cc2)o1 [compound 220] .
[A] > 200 µM

[Q] In one line, give reported IC50 of the entry Nc1cc2cc(-c3cn(Cc4cc(F)c(-c5nnc(C(F)F)o5)cc4F)nn3)ccc2cn1 [compound 406] .
[A] 1000 µM

[Q] In one line, give reported IC50 of the entry CNc1ncc2cc(-c3cn(Cc4ccc(-c5nnc(C(F)F)o5)cc4F)nn3)ccc2n1 [compound 390] .
[A] 1000 µM

[Q] In one line, give reported IC50 of the entry Cn1c(N)nc2cc(-c3nnn(Cc4ccc(-c5nnc(C(F)F)o5)cc4Cl)n3)ccc21 [compound 374] .
[A] > 1000 µM

[Q] In one line, give reported IC50 of the entry O=C(NCC1CC1)C1CCCN(C(=O)c2ccc(-c3cn(Cc4c(F)cc(-c5nnc(C(F)F)o5)cc4F)nn3)cc2)C1 (stereo not shown) [compound 239] .
[A] > 200 µM

[Q] In one line, give reported IC50 of the entry O=C(Nc1ccc(-c2nnc(Cc3ccc(-c4nnc(C(F)F)o4)cn3)s2)cn1)C(F)F [Compd. 102] .
[A] > 200 µM

[Q] In one line, give reported IC50 of the entry NCc1ccc(-c2cn(Cc3c(F)cc(-c4nnc(C(F)F)o4)cc3F)nn2)cn1 [compound 101] .
[A] > 200 µM

[Q] In one line, give reported IC50 of the entry NCc1ccc(-c2nnn(Cc3ccc(-c4nnc(C(F)F)o4)cc3)n2)cc1 [compound 43] .
[A] 74.9 µM

[Q] In one line, give reported IC50 of the entry Nc1nccc2cc(-c3nnn(Cc4cc(F)c(-c5nnc(C(F)F)o5)cc4F)n3)ccc12 [compound 396] .
[A] 1000 µM

[Q] In one line, give reported IC50 of the entry FC(F)c1nnc(-c2ccc(Cn3nnc(-c4ccc(N5CCNCC5)cc4)n3)cc2)o1 [compound 103] .
[A] > 200 µM

[Q] In one line, give reported IC50 of the entry NC(=O)c1cccc(-c2cnn(Cc3ccc(-c4nnc(C(F)F)o4)cn3)c2)c1 [compound 334] .
[A] > 1000 µM

Just for reference, patent US20230286970A1 is where these values come from.
